// data source = patent US20240083971A1

Target: T1, human CD64 (recombinant) (human, UniProt P12314 16-288)
T1 chain: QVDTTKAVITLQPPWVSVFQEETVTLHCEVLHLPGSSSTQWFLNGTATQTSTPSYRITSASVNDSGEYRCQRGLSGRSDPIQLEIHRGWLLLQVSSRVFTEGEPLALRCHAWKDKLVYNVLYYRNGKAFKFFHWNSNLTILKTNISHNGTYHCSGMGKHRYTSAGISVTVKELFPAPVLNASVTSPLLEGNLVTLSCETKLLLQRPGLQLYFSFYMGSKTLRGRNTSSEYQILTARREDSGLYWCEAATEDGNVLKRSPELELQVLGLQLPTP
Experiment: BLI; 50 nM CD64
Reported endpoint: Kd (nM)
One number for each entry, in nM.

Task item: Recall and state the measured Kd for XVNSCLLLPNLLGCGDDY (not fully specified; X1 is K, Ac-K(azido), or absent (azide clicked to DBCO-peg4-biotin); disulfide bond between C5 and C14; C-terminal amidation present or absent) [CP-33(C-term "Y" insertion mutant)-linker-biotin conjugate] .
Reply: 3
